STUDY_TARGET: human CD33 T253A (human, UniProt P20138 18-364)
Sequence (P20138 18-364 T253A limits assumed): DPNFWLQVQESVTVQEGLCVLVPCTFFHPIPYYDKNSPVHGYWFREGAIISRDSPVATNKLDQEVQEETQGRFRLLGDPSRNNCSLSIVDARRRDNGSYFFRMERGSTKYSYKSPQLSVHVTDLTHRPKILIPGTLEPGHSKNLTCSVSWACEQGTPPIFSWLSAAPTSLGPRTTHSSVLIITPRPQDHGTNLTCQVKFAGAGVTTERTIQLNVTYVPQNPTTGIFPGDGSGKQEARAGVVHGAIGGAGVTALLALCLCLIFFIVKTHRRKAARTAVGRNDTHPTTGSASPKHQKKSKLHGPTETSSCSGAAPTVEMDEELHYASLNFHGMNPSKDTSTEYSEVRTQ
EXPERIMENT: alanine scan, flow cytometry, HEK293-T;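 note: antibody binding to each alanine-substituted CD33 mutant expressed transiently in HEK293-T, read as fluorescence minus background, mean of duplicates, relative to wild-type CD33 set as 100%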
QUANTITY: Mean % WT Binding (% WT binding)
Record the value in % WT binding, omitting the unit from your answer.

Query :: GET /values?readout=Mean % WT Binding&item= Refmab #4 (antibody, V domains shown, The alanine scan used IgG or Fab) VH: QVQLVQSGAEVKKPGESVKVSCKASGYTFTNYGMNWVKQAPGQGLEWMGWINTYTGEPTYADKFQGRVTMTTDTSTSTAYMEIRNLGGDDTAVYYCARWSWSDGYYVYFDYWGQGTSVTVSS VL: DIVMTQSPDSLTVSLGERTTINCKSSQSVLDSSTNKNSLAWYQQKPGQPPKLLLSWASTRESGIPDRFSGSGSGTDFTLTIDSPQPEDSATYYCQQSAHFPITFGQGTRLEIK
Result :: 108
